Target: T1, Hendra virus glycoprotein G (Hendra virus (HeV), UniProt O89343 71-604)
T1 sequence: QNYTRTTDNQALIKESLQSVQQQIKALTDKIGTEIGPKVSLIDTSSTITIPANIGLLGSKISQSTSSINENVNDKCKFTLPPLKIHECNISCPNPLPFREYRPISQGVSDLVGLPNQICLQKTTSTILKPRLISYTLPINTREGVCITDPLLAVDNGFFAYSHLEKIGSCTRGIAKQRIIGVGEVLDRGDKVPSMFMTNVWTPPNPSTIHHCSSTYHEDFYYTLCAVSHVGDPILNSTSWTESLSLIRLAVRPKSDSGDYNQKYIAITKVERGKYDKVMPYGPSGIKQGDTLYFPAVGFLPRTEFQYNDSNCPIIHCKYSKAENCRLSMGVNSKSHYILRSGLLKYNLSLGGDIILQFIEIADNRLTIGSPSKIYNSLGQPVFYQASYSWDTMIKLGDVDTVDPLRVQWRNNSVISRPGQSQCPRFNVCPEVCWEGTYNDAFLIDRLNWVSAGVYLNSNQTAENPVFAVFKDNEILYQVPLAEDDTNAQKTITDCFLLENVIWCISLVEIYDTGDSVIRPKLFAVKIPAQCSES
Assay: ELISA, G protein coated at 1 µg/mL, antibody 1:3 dilutions from 20 µg/mL
measured.attribute: EC50 (µg/mL)
All answers are understood in µg/mL, so give the number only.

- 2E7 (antibody, V domains shown, copies: 2 + 2) VH: VQLQESGPGLVKPSETLSLTCSVSGGSISISNWWSWIRQSPGKGLEWIGYIYGSSGSTLYNPSLKSRVSISTDTSKNQFSLKLRSVTAADTAVYYCASPSIAATGDFDYWGQGVLVTVSS VL: QSVLTQPPSASGAPGQSVTISCSGSSSNIGGNNVYWYQQLPGTAPKLLIYSSNQRPSGVPDRFSGSKSGTSASLAITGLRSEDEADYFCAVWDDSLGSPFFGGGTRLTVLR: 0.0701
- 1B6 (antibody, V domains shown) VH: VQLQESGPGPVKPSETLSLTCTVSGGSMSRGYDWNWIRQPPGKGLEWIGYIGDDGGRSNYNPSLKSRVTISKDSSKNQFSLKLGSVSAADTAVYYCARALRAIWYNSGWFYNSLDVWGRGVLVTVSS VL: DIVLTQSPASLAVSPGQRATITCRASEGVSVFGRDLIHWYQQKPGQPPKLLIYQTSNRDTGVPARFSGSGSGTDFTLTINPVEADDAADYYCLQSKNSYSFGQGTKVEIKT: 0.0529
- 1E5 (antibody, V domains shown) VH: VQLQESGPGVVKPSETLSLTCAVSGGSISDTYRWSWIRQPPGKGLEWIGYIYGSATSTYYNPSLSSRVTISKDMSKNQFSLNLNSVTAADTAVYYCARDYQYYYSGSYPTPHNWFDVWGPGVLVTVSS VL: DIQMTQSPSSLSASVGDRVTITCRASQGIIDYLSWYQQKPGKAPKLLISTASNLESGVPSRFSGSGSGTEFTLTISSLQPEDFATYSCLQGYTTPYTFGQGTKVEIKT: 0.00034

Now for the binder whose EC50 we want.
Look up EC50 of 2A4 (antibody, V domains shown) VH: QVQLQESGPGLVKPSETLSLTCPVSGASISSHWWTWIRQPPGKGLEWIGEIHGNSGSTNYNPSLKSRVTISKDASKNHFSLKLSSVTAADTAVYYCARDGHLGILVVFATSRFDVWGPGVLVTVSS VL: DIQMTQSPSSLSASVGDTVTITCQASQGIANNLNWYQQKPGKAPKLLIYRASSLQSGIPSRFSGSGSGTDYTLTISSLQPEDFATYYCQQGYTYPRTFGQGTKVEIKT and report it.
0.00737
